Measurement protocol: ATG_MRE_CIS: Attagene CIS-FACTORIAL HepG2 Assay for human Metal Responsive Element (MRE) (AID 2282954)
Experimental context: HepG2 MRE cis-reporter transcription, Attagene multiplex; actives raise or lower the signal
The source made the active and inactive calls. Rule for the calls: active = hit-call score of the fitted dose curve at least 0.9, where 1 is the maximum; inactive = score below 0.9.
Permitted responses: yes (active), no (inactive)

Examples from the recorded data:
CC(COCC(C)OC(=O)c1ccccc1)OC(=O)c1ccccc1 (centres undefined) = no
CCc1cc(C2=C(C(=O)O)N(c3ccccc3C(F)(F)F)S(=O)(=O)c3ccccc32)cc2c1OCO2 = yes
O=C1NC(=O)C(c2ccccc2)(c2ccccc2)N1 = no
O=C(O)CN(CC(=O)O)CC(=O)O = no
COc1ccc(C(=O)Nc2nc3ccccc3c(NCc3ccccc3)c2C#N)cc1 = no

Lab log entry: "C/C=C/c1ccc(OC)cc1" — outcome as called in the assay? no

Lab log entry: "S=c1[nH]c2ccccc2s1" — outcome as called in the assay? no

Lab log entry: "O=C1O[C@H]([C@H](O)CO)C(O)=C1O" — outcome as called in the assay? no

Lab log entry: "Cc1occc(=O)c1O" — outcome as called in the assay? no

Lab log entry: "CC(=O)OCC(COC(C)=O)OC(C)=O" — outcome as called in the assay? no

Lab log entry: "CC(C)OC(=O)C(C)(C)Oc1ccc(C(=O)c2ccc(Cl)cc2)cc1" — outcome as called in the assay? yes

Lab log entry: "CCCC(=O)O" — outcome as called in the assay? no

Lab log entry: "CC(C)c1cccc(C(C)C)c1NC(=O)NS(=O)(=O)c1cc(C(C)(C)O)co1" — outcome as called in the assay? no

Lab log entry: "O=C(NS(=O)(=O)/C=C/c1cccs1)c1ccc(F)cc1Br" — outcome as called in the assay? no

Lab log entry: "O=Cc1ccccc1C=O" — outcome as called in the assay? no

Lab log entry: "CCc1nc(N)nc(N)c1-c1ccc(Cl)cc1" — outcome as called in the assay? yes

###

Read-out: Tissue plasminogen activator (tPA), PLAT (gene 5327)
Measurement protocol: BSK_BE3C_tPA: BioMAP Diversity Plus: BE3C Assay for Tissue plasminogen activator (tPA) Biomarker Activity (AID 2283041)
Experimental context: primary human bronchial epithelial cells; actives raise or lower the signal
Activity calls are given as the source filed them. How the source made its calls: active means hit-call score of the fitted dose curve at least 0.9, where 1 is the maximum; inactive means score below 0.9.
Measure name: AC50

O=C1O[C@H]([C@H](O)CO)C(O)=C1O = inactive
CCCCCCCCCCCCCCOS(=O)(=O)O = 18.8 µM (active)
CC(=O)OCC(COC(C)=O)OC(C)=O = inactive
CCCCC(CC)CO (centres undefined) = inactive
O=C(N[C@@H](c1ccccc1)[C@@H]1CCCCN1)c1cccc(C(F)(F)F)c1Cl = 24 µM (active)

Reported AC50 for "O=C(O)CC(O)(CC(=O)O)C(=O)O" was inactive

Reported AC50 for CC(=O)OC1CC(C)OC(C)O1 (centres undefined) was inactive

Reported AC50 for "CC(C)OC(=O)C(C)(C)Oc1ccc(C(=O)c2ccc(Cl)cc2)cc1" was inactive

Reported AC50 for Cc1c(C)c2c(c(C)c1O)CCC(C)(COc1ccc(CC3SC(=O)NC3=O)cc1)O2 (centres undefined) was 9.19 µM (active)

Reported AC50 for CCCCC(CC)COP(=O)(OCC(CC)CCCC)OCC(CC)CCCC (centres undefined) was inactive

Reported AC50 for "O=[Si]=O" was inactive

Reported AC50 for "CCCCCCCC(=O)OC" was inactive

Reported AC50 for "CN(C)C(=O)NC1(c2ccccc2)CCN(CC[C@@]2(c3ccc(F)c(F)c3)CN(C(=O)c3ccccc3)CCO2)CC1" was inactive

Reported AC50 for "CC(C)c1cccc(C(C)C)c1" was inactive

Reported AC50 for "NC=O" was inactive

Reported AC50 for "CC(C)c1cccc(C(C)C)c1NC(=O)NS(=O)(=O)c1cc(C(C)(C)O)co1" was inactive

Reported AC50 for "NCCOCCOCCN" was inactive

Reported AC50 for "Cn1cnc2c1c(=O)[nH]c(=O)n2C" was inactive

Reported AC50 for "NC(=Nc1ccccc1)Nc1ccccc1" was inactive

###

Measurement protocol: APR_HepG2_MitoticArrest_72hr: Apredica 72-hour HepG2 Assay for Mitotic Arrest (AID 2282918)
Experimental context: high-content imaging, actives raise or lower the signal
Calls of active or inactive are those of the source. The calls were made as follows: active = hit-call score of the fitted dose curve at least 0.9, where 1 is the maximum; inactive = score below 0.9.
Permitted responses: 1 (yes) (active), 0 (no) (inactive)

CCc1cc(C2=C(C(=O)O)N(c3ccccc3C(F)(F)F)S(=O)(=O)c3ccccc32)cc2c1OCO2 = 0 (no)
NC1CCCCC1 = 0 (no)
CN(C)C(=O)NC1(c2ccccc2)CCN(CCC[C@]2(c3ccc(Cl)c(Cl)c3)CCCN(C(=O)c3ccccc3)C2)CC1 = 1 (yes)

Continue with the next molecule.
Lab log entry: "CCOCCOCCO" — outcome as called in the assay? 0 (no)

###

Measurement protocol: CCTE_Shafer_MEA_acute_interburst_interval_mean: CCTE's Neural Acute Assay for Mean Interburst Interval, Shafer Lab (AID 2284016);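 note: percent change of mean interburst interval versus each well's own pre-dose baseline; curves fitted for decrease in interburst interval relative to DMSO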
Calls of active or inactive are those of the source. Rule for the calls: active = hit-call score of the fitted dose curve at least 0.9, where 1 is the maximum; inactive = score below 0.9.
Permitted responses: t (active), f (inactive)

Examples from the recorded data:
COc1ccc(OC(F)(F)F)cc1CN[C@H]1CCCN[C@H]1c1ccccc1 = t
Cc1cc(SC2=C(O)C[C@@](CCc3ccc(N)cc3)(C(C)C)OC2=O)c(C(C)(C)C)cc1CO = f

Continue with the next molecule.
Lab log entry: "CC(C)COC(=O)CCCCC(=O)OCC(C)C" — outcome as called in the assay? f

###

Measurement protocol: APR_HepG2_P-H2AX_24hr: Apredica 24-hour HepG2 Assay for H2AX Phosphorylation (AID 2282920)
Experimental context: high-content imaging, actives raise or lower the signal
Calls of active or inactive are those of the source. Rule for the calls: active = hit-call score of the fitted dose curve at least 0.9, where 1 is the maximum; inactive = score below 0.9.
Permitted responses: active, inactive

Examples from the recorded data:
CC(C)(C)c1ccccc1 = inactive
C=CCCCCCCCCCCCC = active

Continue with the next compound.
Lab log entry: "CC1(C)C(=O)NC(=O)N1CO" — outcome as called in the assay? inactive

###

Measurement protocol: APR_HepG2_MitoMass_24hr: Apredica 24-hour HepG2 Assay for Mitochondrial Mass (AID 2282912)
Experimental context: high-content imaging, actives raise or lower the signal
Protocol: APR_HepG2_24hr is a cell-based, multiplexed-readout assay that uses HepG2, a human liver cell line, with measurements taken at 24 hours after chemical dosing in a 384-well plate.APR_HepG2_MitoMass_24hr is one of 10 assay component(s) measured or calculated from the APR_HepG2_24hr assay. […] This assay endpoint, APR_HepG2_MitoMass_24hr, was analyzed with bidirectional fitting relative to DMSO as the negative control and baseline of activity. […]
The source made the active and inactive calls. Rule for the calls: active = hit-call score of the fitted dose curve at least 0.9, where 1 is the maximum; inactive = score below 0.9.
Permitted responses: active, inactive

Examples from the recorded data:
CC(=O)O = inactive
CCCCCCCCCCCCCCCCO = inactive
CC(=O)O[C@]1(C(C)=O)CC[C@H]2[C@@H]3C=C(Cl)C4=CC(=O)[C@@H]5C[C@@H]5[C@]4(C)[C@H]3CC[C@@]21C = inactive

Lab log entry: "CC(C)(C)c1ccccc1" — outcome as called in the assay? inactive

Lab log entry: "CCCCCCC(C=O)=Cc1ccccc1" — outcome as called in the assay? active

Lab log entry: "CC(N)=O" — outcome as called in the assay? inactive

###

Tested on: Estrogen receptor (Homo sapiens) + Estrogen receptor beta (Homo sapiens) (UniProt P03372+Q92731)
Sequence (P03372 whole entry, looked up, the tested form may be a part): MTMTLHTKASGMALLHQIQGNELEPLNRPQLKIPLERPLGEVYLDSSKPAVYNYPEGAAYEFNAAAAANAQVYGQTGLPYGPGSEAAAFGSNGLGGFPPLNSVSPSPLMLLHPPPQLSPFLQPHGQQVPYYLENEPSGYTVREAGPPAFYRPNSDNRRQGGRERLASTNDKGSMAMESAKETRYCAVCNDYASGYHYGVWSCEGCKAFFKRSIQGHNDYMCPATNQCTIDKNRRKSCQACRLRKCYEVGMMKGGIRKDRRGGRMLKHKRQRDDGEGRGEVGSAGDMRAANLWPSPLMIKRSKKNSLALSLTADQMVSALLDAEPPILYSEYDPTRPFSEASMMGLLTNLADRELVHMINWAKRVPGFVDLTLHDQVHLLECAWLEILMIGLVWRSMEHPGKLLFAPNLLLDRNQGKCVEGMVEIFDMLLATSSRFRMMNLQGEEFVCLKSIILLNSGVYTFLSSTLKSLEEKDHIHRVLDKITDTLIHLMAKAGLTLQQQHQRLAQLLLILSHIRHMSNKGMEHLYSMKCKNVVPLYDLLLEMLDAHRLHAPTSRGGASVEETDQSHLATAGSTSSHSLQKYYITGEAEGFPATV
Sequence (Q92731 whole entry, looked up, the tested form may be a part): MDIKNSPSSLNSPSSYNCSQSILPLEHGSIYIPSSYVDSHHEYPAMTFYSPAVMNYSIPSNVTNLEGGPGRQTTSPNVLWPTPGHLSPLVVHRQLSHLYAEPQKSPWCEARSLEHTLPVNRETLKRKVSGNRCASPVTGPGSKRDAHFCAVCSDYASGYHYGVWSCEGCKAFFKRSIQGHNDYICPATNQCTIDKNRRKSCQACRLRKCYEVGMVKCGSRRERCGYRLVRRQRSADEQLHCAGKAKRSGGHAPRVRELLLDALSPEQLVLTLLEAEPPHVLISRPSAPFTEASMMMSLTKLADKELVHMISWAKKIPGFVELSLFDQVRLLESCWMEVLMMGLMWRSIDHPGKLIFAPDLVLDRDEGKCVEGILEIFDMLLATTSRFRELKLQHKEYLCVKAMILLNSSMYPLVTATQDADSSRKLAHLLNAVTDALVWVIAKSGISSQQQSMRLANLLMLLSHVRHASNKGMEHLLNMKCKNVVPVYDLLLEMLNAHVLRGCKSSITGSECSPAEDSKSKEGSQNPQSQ
Measurement protocol: OT_ER_ERaERb_1440: Odyssey Thera (OT) 24-hour HEK293T Protein-Complementation Assay for Estrogen Receptor-alpha/-beta Homodimer (AID 2283356);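 note: heteromer of ER alpha and ER beta binding domains; hits raise reporter fluorescence and both agonists and antagonists give an increase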
Results filed as inconclusive are left out. Active and inactive are the calls of the source. Rule for the calls: active = hit-call score of the fitted dose curve at least 0.9, where 1 is the maximum; inconclusive = response in the unintended direction; inactive = score below 0.9.
Measure name: outcome

Illustrative cases are given below, each with its answer.
OCC(CO)n1cnc(-c2ccc(F)cc2)c1-c1ccnc(Oc2ccccc2)n1 = inactive
CCCCCCCC(=O)OC = inactive
CCCCCCCCCCCCCCOS(=O)(=O)O = inactive
Nc1nc(=S)c2[nH]cnc2[nH]1 = inactive

Reported outcome for "O=[Si]=O" was inactive

###

Tested on: Transcription factor Sp1 (Homo sapiens)
Measurement protocol: ATG_Sp1_CIS: Attagene CIS-FACTORIAL HepG2 Assay for human Specificity Protein 1 (Sp1) (AID 2282961)
Experimental context: HepG2 Sp1 cis-reporter transcription, actives raise or lower the signal
Activity calls are given as the source filed them. The calls were made as follows: active = hit-call score of the fitted dose curve at least 0.9, where 1 is the maximum; inactive = score below 0.9.
Permitted responses: true (1) (active), false (0) (inactive)

S=c1[nH]c2ccccc2s1 = true (1)

Lab log entry: "C/C=C/C=C/C(=O)O" — outcome as called in the assay? false (0)

Lab log entry: CCCCC(CC)CO (stereo not given) — outcome as called in the assay? false (0)

Lab log entry: "CC(=O)O" — outcome as called in the assay? false (0)

Lab log entry: "O=C1OC(c2ccc(O)cc2)(c2ccc(O)cc2)c2ccccc21" — outcome as called in the assay? true (1)

Lab log entry: Cc1c(C)c2c(c(C)c1O)CCC(C)(COc1ccc(CC3SC(=O)NC3=O)cc1)O2 (stereo not given) — outcome as called in the assay? false (0)
